Quick reference: 100 nM L1 (DELFIA signal) (fluorescence units) of the listed items.
- assayedSystem: L1 (DV1-GV4) soluble heterodimeric γδ TCR antigen, leucine zipper (LZ) format (human)
- Sequence (main, as listed by the source): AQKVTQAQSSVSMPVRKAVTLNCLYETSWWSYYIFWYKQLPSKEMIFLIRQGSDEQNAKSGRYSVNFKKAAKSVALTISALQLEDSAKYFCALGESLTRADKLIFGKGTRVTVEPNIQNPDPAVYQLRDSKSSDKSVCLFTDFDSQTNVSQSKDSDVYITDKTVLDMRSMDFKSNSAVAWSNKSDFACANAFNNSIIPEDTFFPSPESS
- runDescription: DELFIA affinity ranking with 100 nM biotinylated L1
propertyName: 100 nM L1 (DELFIA signal) (fluorescence units)

binder	numericResult
1245_P01_G09 (scFv) (scFv) scFv: QVQLQQSGPGLVKPSQTLSLTCAISGDSVSSNSAAWNWIRQSPSRGLEWLGRTYYGSKWYNEYALSVKSRIIINPDTSKNQFSLQLNSVTPEDTAVYYCARDYYYSMDVWGQGTLVTVSSGGGGSGGGGSGGGASDIVMTQSPSTLSASIGDRVTITCRAGQSISTWLAWYQQKPGKAPKLLIYDASSLESGVPLRFSGSGSGTEFTLAISSLQPDDFATYYCQQSYSTPVTFGQGTKVEIK	18400
1251_P02_G10 (scFv) (scFv) scFv: EVQLVESGGGLVQPGGSLRLSCAASGFTFSDYYMSWIRQAPGKGLEWVSYISSSGSTIYYADSVKGRFTISRDNAKNSLYLQMNSLRAEDTAVYYCARHSWNDAFDIWGRGTLVTVSSGGGGSGGGGSGGGASDIQMTQSPSSLSASVGDRVTITCRASQSISSHLNWYQQKPGKAPKLLIYAASSLQSGVPSRFSASGSGTDFTLTISSLQPEDFATYYCQQSYSTLLTFGGGTKVEIK	17100
1251_P02_C05 (scFv) (scFv) scFv: EVQLLESGGGLVQPGGSLRLSCAASGFTFSSYAMSWVRQAPGKGLEWVSAISGGGGTTYSSDSVKGRFTISRDNSKNTLYLQMNSLRAEDTAVYYCARDSGVAFDIWGQGTLVTVSSGGGGSGGGGSGGGASDIQMTQSPSFLSASVGDRVTITCRASQNIRTWLAWYQQKPGRAPKLLIYDASSLESGVPSRFSGSGSGTDFTLTISSLQPEDFATYYCQQFKRYPPTFGLGTKVEIK	65300
1252_P01_C08 (scFv) (scFv) scFv: EVQLLESGGGLVQPGRSLRLSCAASGFTVSSNYMSWVRQAPGKGLEWVSVIYSGGSTYYADSVKGRFTISRDNSKNTLYLQMNSLRAEDTAVYYCASPIELGAFDIWGQGTLVTVSSGGGGSGGGGSGGGASSYELTQPPSVSVAPGKTARITCGGNNIGSQSVHWYQQKPGQAPMLVIYYDSDRPSGIPERFSGSNSGNTATLTISRVEAGDEADYYCQVWDSSSDHVVFGGGTKLTVL	1980
1245_P02_G04 (scFv) (scFv) scFv: QVQLQQSGPGLVKPSQTLSLTCAISGDSVSSKSAAWNWIRQSPSRGLEWLGRTYYRSKWSTDYAASVKSRITINPDTSKNQLSLQLNSVTPEDTAVYYCARTWSGYVDVWGQGTLVTVSSGGGGSGGGGSGGGASDIQMTQSPPALSASVGDRVTITCRASQDINDWLAWYQHKPGKAPKLLIYDASSLESGVPSRFSGSGSGTEFTLTISSLQPDDFATYYCQQSYSTPQVTFGQGTRLEIK	5900

Source of measurements: patent US20220290101A1
